# test.target: 5-hydroxytryptamine receptor 1A (Rattus norvegicus, UniProt P19327); note: in other assays of this panel Not Active means under 50% inhibition at 10 µM
# Sequence (P19327 whole entry): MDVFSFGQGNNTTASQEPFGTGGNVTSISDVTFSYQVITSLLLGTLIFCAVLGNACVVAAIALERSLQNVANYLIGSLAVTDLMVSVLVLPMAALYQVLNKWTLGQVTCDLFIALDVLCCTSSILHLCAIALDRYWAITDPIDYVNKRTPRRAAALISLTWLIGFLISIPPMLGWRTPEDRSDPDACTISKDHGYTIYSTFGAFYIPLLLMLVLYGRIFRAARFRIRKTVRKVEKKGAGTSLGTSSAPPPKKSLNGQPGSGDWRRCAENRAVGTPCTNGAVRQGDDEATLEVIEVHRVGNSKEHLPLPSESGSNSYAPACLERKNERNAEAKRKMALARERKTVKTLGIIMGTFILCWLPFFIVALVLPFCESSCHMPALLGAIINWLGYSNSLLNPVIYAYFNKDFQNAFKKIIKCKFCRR
# Type: cell membranes, CHO-K1, Membrane
# details: cho-k1
endpoint.label: IC50

CC[C@H]1OC(=O)[C@H](C)[C@@H](O[C@H]2C[C@@](C)(OC)[C@@H](O)[C@H](C)O2)[C@H](C)[C@@H](O[C@@H]2O[C@H](C)C[C@H](N(C)C)[C@H]2O)[C@](C)(O)C[C@@H](C)C(=O)[C@H](C)[C@@H](O)[C@]1(C)O [ERYTHROMYCIN]	Not Active
COC(=O)Nc1nc2ccc(Sc3ccccc3)cc2[nH]1 [FENBENDAZOLE]	Not Active
CCN(CCO)CCCC(C)Nc1ccnc2cc(Cl)ccc12 (stereo not drawn) [HYDROXYCHLOROQUINE]	Not Active
